experiment: Acute toxicity in ip dosed mouse measured after 72 hrs
Format: organism-based
protocolConditions: in vivo
LD50 at 72 h values by entry
reportedEndpoint: LD50 at 72 h (mg/kg)

CN(C)C(=O)Oc1cccc([N+](C)(C)C)c1.COS(=O)(=O)[O-] [NEOSTIGMINE METHYLSULFATE] :: 0.51
CN(C)C(=O)Oc1ccc[n+](C)c1.[Br-] [PYRIDOSTIGMINE BROMIDE] :: 3.3
